test system: PC-3 prostate; assay: NCI tumour cell line growth inhibition, 48 h
Parameter TGI: see the listing below.
valueType: TGI (µM)

{"molecule": "COc1ccc(OC)c(C2CCc3c(cnc4nc(N)nc(N)c34)C2)c1 (stereo not given)", "valueType": "TGI", "prefixOperator": "=", "observedResult": 27.5}
{"molecule": "NC(=O)c1cccc(N=c2oc3ccc(Br)cc3cc2-c2nc3ccccc3[nH]2)c1", "valueType": "TGI", "prefixOperator": "=", "observedResult": 29.2}
{"molecule": "CC(=O)Nc1c(I)c(NC(C)=O)c(I)c(C(=O)O)c1I", "valueType": "TGI", "prefixOperator": ">", "observedResult": 100}
{"molecule": "C[C@]12CC[C@H]3[C@@H](CC=C4C[C@@H](O)CC[C@@]43C)[C@@H]1C/C(=C/c1ccccc1)[C@@H]2O", "valueType": "TGI", "prefixOperator": ">", "observedResult": 57.2}
{"molecule": "Cc1ccc(NC(=O)c2cc3ccccc3c(N=Nc3cc(S(=O)(=O)O)ccc3O)c2O)c(C)c1", "valueType": "TGI", "prefixOperator": ">", "observedResult": 100}

Each recorded value in this set is attributed to PubChem BioAssay (NCI).
